- assayExplanation: soluble on expression in E. coli; label from the status in PepcDB or PDB records
propertyName: soluble on expression in E. coli

MGSDKIHHHHHHATPAEIPFDAVLAGQTPMLFKGLVRDWPLVQAGLGSPQAARDYIRAHDRGVPVVGYTGDPAIKGRFFYNDTLTGLNFKAERAPLEAFLGRIEAVEGQENAPAIYIGSTDLDAYFPSLKAENDLGLGPEVYGPQPPMAGIWLGNRTVAAAHYDMSNNIAVCAVGRRRFTLFPPDQVANLYPGPLEPTPGGQVVSMVDFETPDFDRHPRFREALASAQVAEMEPGDVLVYPALWWHQVEALDGFNVLMNYWWNATPAFVDTPMTTLLHGLLSLRDRPDFEKQGWKALFDYYVFGPAERAGAHLPDDARGPLGALDDLKARRLRAWLLDRLNR ... not soluble
SNAMADGIYGSFENLKKHAGTMTLEAYMRFSAKLSEAKDEMGTKEYEVFTKELKKLTNAKLAYGDANGNIDYDALSPEKREEMKTVSMGLQPYFDKLNGHKSSKEVLTQEEFDRYMEALMTHEIVRVKTKSTGAIKVEEVPEAYKERFMKAEQFMEYVDEKVR ... soluble
MPSKQVGWWTMSEHTNDEVQPTALSGNDAVNRAAEQWKESAHRNIPGLGDLPIPDDTANLREGPNLHDGLLALLPLVGVWRGTGHADTAEEGQYAFGQQITFAHDGENYLTYESRIWKLDDEGNSTDLDYRESGFWRISLKDEIEVVLTHSTGVAEIFYGEPMNERAWQIESASTMVTAQGPATLGPGKRLYGLMPNNNLGWVDERMVDGEMRPRMSAELSRVIG ... not soluble
MGSDKIHHHHHHMLWLLMTTGKCNLKCDYCGGSFPDNVVPYGIKYDINSVKKLIEKDKDSTIIFYGGEPLLNYKFVMAVLDNVRAKRYGIQTNGIAVRLLPERYWRKINVALLSIDGREEITNKHRGKGIYKAVLRSAKYLKDLGVETIARMTVTQDTDIFTDVMHLIDLGLFDKVHWQLDVIWSEEWDFKSWSFSYLNGIKRLTDYFLSELRKGRVVKIIPILGVISAHFFEGYKGSPCGAGYSSVTVTPDGRILSCPIAVREKWAELGNVNLGYRLLEDPLPDDCKRCEFKRYCGGRCLYAQKERYWGEEGFKAVDEVNKEYLRTVLSIIPEIERLIRDGYIRLSDLYYNPILDSTEIIP ... not soluble
MSWSLLSNIIKKFTLLHHFQPIGYIYKYIHICTLNHSLGSCVLQANYSIQNNLRSRTLFIQSEITYSHSLESTHFFGILIFFNIKFRVFNRINDPWTVLDNVPEVMFHDRFFINDFTFWVDVLQEAFRMRRWIFRFEQLVVNPSFSNSQWRIIF ... soluble
GLEIHVQIDTKSKLFCNCSTNYLDAEPNTNVCPVCLGLPGAKPLPPNKKAVEVAIMVAKMLGCKIVVDEDIYFQRKHYDYPDLPSGYQRTSTPIGVDGEFMGIGIHEVHLEEDPGQYNPSFGIVDYNRSGTPLIEIVTKPDIKSPEEAREFLKQLMTLFRYLGCLRGEGTMRADVNISIEYMGVQGNRVEVKNVNSIKGVYKVLKYELIRQKNIIKR ... not soluble

----------
- assayExplanation: soluble on expression in E. coli; label from the status in PepcDB or PDB records
propertyName: soluble on expression in E. coli

MYQEFFTFIPVDIEELDKAFGGGLIRGATISIMYDAFSLGWALGFEMVKNLIRRNSFGVIHNYNLPTIKLISRASFVGLNIQELAKRKEIMILDVFGSKYDVPPYADYVLQVPNPTPETLNPKIESVYENKIFQVAGDRRIVKLVYTLDGVATMFGEEVAIKLLNGELAWLAKMYGKRNVMTILLLNVDMVSKKFIAWTSGVSDIVITFQSLTEEREGELVERMTVIKSLNPEFEPTSYEFRVTATGTGSHALDFRKIENKRDK ... soluble
MNFHVMLTSSHETSFNFVVLLRANSKMKQQRNACRSCRLKECIKVGMNPRAVQGDIDTASTSSASPNLVSVEMHPYTNFREVECQTEVSTISSHPTSPSTLPFVSSGSSICSVSSSCSSVSTVYSNCLAMLPPNPSLPKYDYLLASLSRIFERVDEHAPEPLPNTYSFEHAFYNPHLICNRTKLTPTGERIATLPEVLQDFRRIFVLFTDVLSILPEFSRLDESDRMVLAKSRFSFFYWWLTCCWTAKVGCPGVCYANGAYHPSDKRQQAFPDVKGVTELSVETVSKPLANINITDAEMLVGSVFAIFYEYPLPPKVSYASTHILNEARDLYTQCMITVSPYSQLEAKSASRLAEISLIFSSITNLKYLTSDNIELSDVLHVMEVDQLITEAFDVHRPME ... not soluble
MGSDKIHHHHHHMQFTDAVTVAGTRRTADGYLVATARAVRTGIQLYAGHEVGKPDQEVVRVYRAADQVFSTESLQSFSHAPITVDHPDEEVSAENWKALSVGEVSTAAKQDGQWVMLPLILKDAAAIKSVMDGKRELSAGYTCDLDFTPGVTADGEPYDAQQRGIRINHLALVDRARAGSKARIGDDGGPWGAAPISTTDKETITMSDALRTVVVDGLSVTTTDQGAQAISKLLKDLESSAAKLVDAQTRYQAALAAKDADLAKAHAERDAANAKVLSDADLDKRVAARADLITKAKAIAKDVKTDGLSDSAIRKAAVTAALGDAAVRDKADAYIDARFDILVEDAAKKSGGADPFRQVVQNGLQTADNTNGAAAAHNAMVRDMSSAWMMKKEA ... not soluble
MKKAAVSGRLYEVFDVFADKALAGNPLAIVHDCEGLTDACMQAIAREFNLSETVFIHAPANPAHEASVRIFTPAYELPFAGHPTVGAAVSLARRQKTGDETDRLVTLEEKVGIVRCGVILGENSAFAEFDLPRLPEQVDVKIEREEAAAAIGLGTHEIGFENHVPGVWSAGTPCLLVPVHNLIAAAKVSIDPVYVSESLPHVGGRPLPIYVYCRETILFNSHFHARMFVIGANVYEDPATGSAVAAFAGMIQQNDKPVDGSSQWWIEQGMEMGRPSRIRLELDVSKQKLVSARIGGTAVKIAEGRLFVLEHHHHHH ... not soluble
MSLSVRVDYALVGRELEAREAVCLVFDGSDGRLSSISSSSSCPESSPKFTIAVPPSVNAHIHSSDVQWPEVGNDLSLEELVAPPRGLKHLLLQQAGERACAEAAVGVYRALGRMVVRAAADFREPAAGGCLPVREILATLGGLYTRVVLMGRPGDPYGLEGCDGIGLNSPLDVDPKRMRLLKKSGMRIHAHVAETREMRLEGDLEAALDIGVDTVIHGTHLSREDLELLREHGVTLVLSPRSNMWHGVGLPPVAEAYRVGVKIAFGTDNAAWNMLDPWDEARQAMLVARLQGVKDPGLPHYILKGLLSWGYEALGMEPPALAEGADMCSVALMRLEGYEAGLFRRSFSRYYTLLKIARGDLLQPVCTISGGLLEPAEGHHHHHH ... soluble
DPFEDLDALGSILEEKYGLLEAHVVFSPTPDYAGITHDLSRYGAEYMHETVKDGDIVGVSWGTTMYQIAQNMQPKQVKGVEVVQLKGGISHSRVNTYSAETIQLFAEAFQTMPRYLPLPVVFDNADVKRMVEKDRHIERIIEMGKQANIALFTVGTVRDEALLFRLGYFNEEEKALLKKQAVGDICSRFFDAKGNICSSAINDRTIGVELQDLRLKERSILVAGGSRKVSSIHGALTGKYANVLIIDQHTARALVNDL ... not soluble
MSLTAPLEWKQANFLSISDSHGWLLGHQHSTWPEPNYSGNYGSFASFVIHMRKIADEKGVDLLLIDAGDHHDGSGLVSSSPDSASLAEDIFSMISYDVITIGNHELYHYADALDIYENHERWGGRYVTSNVNITVKREGEWQSVPIGQTHLKFTTKQGYNVTAFGVIFDFKAHDKGITVQKPSKLVHEPWFQEAIRDAPDYFILAGHMPVRGETAEFAPVFDAIRDIHPQVPIFLFGGHTHVRDCVQYDERSIGVVPGKYLETVAFTSSSLPSSSGDDRPLDVARSYQWHTNQTSYTFDTEGHHHHHH ... soluble
MGSDKIHHHHHHMIRVLSVFGTRPEAIKMAPLVKKLEEEQNVESLVCVTAQHRQMLDQVLEVFDIKPDFDLNIMKERQNLSDITVNALSGLYDLIGELKPDIVLVQGDTTTTFAGALAAFYHRIPVGHVEAGLRTNDRYSPFPEEINRRLTGVLSTLHFAPTKRNRENLLKENVMGKIYVTGNTVIDALRYTVKENHVFEDPILRNMDFSDGRYILLTSHRRENIGKPLENICRAVRRIVEGFEDVKVIYPVHMNPAVREIVFPMLENVERVFLIDPVNVIDMHNLMARSYLIMTDSGGIQEEAPALGKPVIVLRKETERPEAIEAGVAVLGGVEEERIFELAKKLLVDREEYEKMAKAVNPFGDGRASERIVKAILHEFGLSDPPEEFC ... not soluble
MSLMKNMARKNQKAPWEEEEEIIWVSRTELKNDMLALQKLGEELVELKPSALAKFPLPEDLAEAIKDAQRFKNEARRRQLQYIGKLMRHIDPEPLQAALDKLRNKHSQTTALLHKLEQLRDRIVAEGDSAIEVAMEQYPEADRQRLRLLARQASKEKAGNKPPKSSREIFQLLKEAMLAKQEIEEESEDDLDSAEEGHHHHHH ... soluble
